Where these numbers come from: PubChem BioAssay AID1159580

# experimental protocol: chemical genetic growth profiling, strain panel (AID 1159580);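 also: tested at 20 µM; growth read once vehicle control cultures reached saturation at 30 °C; 1 = growth at the plate median or of vehicle wells; lower values mean less growth of the strain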
# settings: S. cerevisiae deletion strains, growth OD, locus YDL017W, strain CDC7, active compounds read low
About 2,000 (36%) of roughly 5,500 compounds were called active. Roughly 18% stayed inconclusive and do not appear here. The list shows a part of the results.
parameter measured: normalized growth
// keep it numeric: no unit symbol after the value

O=C(NCCSCc1cccc(C(F)(F)F)c1)Nc1cccc(C(F)(F)F)c1 1
CSc1cc(-c2ccncc2)nc(-c2cccs2)c1 0.959
CC(C)c1ccc(N2C=Nc3ccc(C(C)C)cc3C2)cc1 1
N#CC(C#N)=C/C=C(/Sc1ccc(F)c(Cl)c1)c1ccc(Cl)cc1 0.961
COc1ccc(C(=O)CSC2=NCCc3ccccc32)cc1 0.98
Cc1cc(Br)ccc1-n1c(Sc2c([N+](=O)[O-])cc(C(F)(F)F)cc2[N+](=O)[O-])nc2ccccc2c1=O 0.989
Cc1nn(Cc2ccc(C(=O)Sc3ccc(C(F)(F)F)cn3)o2)c(C)c1Br 0.969
FC(F)(F)c1cccc(NC(=S)Nc2csc(C(F)(F)F)c2-c2ccccc2)c1 0.998
O=C(Nc1ccc(C(F)(F)F)cc1)N1CCN(c2ccnc3cc(Cl)ccc23)CC1 0.994

Give normalized growth for `O=C(NCCSCc1cccc(C(F)(F)F)c1)c1ccc(Cl)cc1`
0.971
